- System: Staphylococcus aureus
- EXPERIMENT_NOTES: Antibacterial activity against methicillin susceptible Staphylococcus aureus ATCC 29213 after 16 to 18 hrs by CLSI-based microbroth dilution method
- Assay type: functional
- TEST_PARAMETERS: time 16-18 hrs
QUANTITY_NAME: MIC

Look over these answered cases.
| COMPOUND | RESULT |
| --- | --- |
| Cl.Cl.O=C1/C(=C/c2ccc(OCCCCN3CCCCCC3)cc2)CC/C1=C\c1ccc(OCCCCN2CCCCCC2)cc1 | 4 µg/mL |
| COc1cc(/C=C/C(=O)CC(=O)/C=C/c2ccc(O)c(OC)c2)ccc1O | > 256 µg/mL |
| CCOc1cc(/C=C2\CC/C(=C\c3ccc(OCCCN4CCCC(C)C4)c(OCC)c3)C2=O)ccc1OCCCN1CCCC(C)C1.Cl.Cl (stereo unspecified) | 2 µg/mL |
| Cc1onc(-c2ccccc2)c1C(=O)N[C@@H]1C(=O)N2[C@@H]1SC(C)(C)[C@@H]2C(=O)O | 0.5 µg/mL |
| COc1cc(/C=C2\CC/C(=C\c3ccc(OCCCN4CCCCCC4)c(OC)c3)C2=O)ccc1OCCCN1CCCCCC1.Cl.Cl | 2 µg/mL |

Then this compound:
QUERY: Need MIC, item COc1cc(/C=C2\CC/C(=C\c3ccc(OCCCCN4CCCCCC4)c(OC)c3)C2=O)ccc1OCCCCN1CCCCCC1.Cl.Cl
RESULT: 2 µg/mL

###

- Test system: Escherichia coli
- EXPERIMENT_NOTES: Antibacterial activity against Escherichia coli E-59 after 16 to 18 hrs by CLSI-based microbroth dilution method
- Format: functional
- TEST_PARAMETERS: time 16-18 hrs
Positions of bridges follow the written chain, without caps; N, C: chain ends. Non-standard residues stand in square brackets, D forms with d. Residues, ends and D or L forms follow the SMILES beside them. *: point of attachment. X1 = CC[C@H](C)CCCCC(=O)*; Dab = NCC[C@H](N)C(=O)O
QUANTITY_NAME: MIC (µg/mL)
All answers are understood in µg/mL, so give the number only.

| MOLECULE | UNIT_TEXT | MIC |
| --- | --- | --- |
| CC[C@H](C)CCCCC(=O)N[C@@H](CCN)C(=O)N[C@H](C(=O)N[C@@H](CCN)C(=O)N[C@H]1CCNC(=O)[C@H]([C@@H](C)O)NC(=O)[C@H](CCN)NC(=O)[C@H](CCN)NC(=O)[C@H](CC(C)C)NC(=O)[C@@H](Cc2ccccc2)NC(=O)[C@H](CCN)NC1=O)[C@@H](C)O (X1-[Dab]T[Dab][Dab][Dab][dF]L[Dab][Dab]T; lactam 4-C) | µg/mL | 1 |

QUERY: # value lookup — system Escherichia coli, readout MIC, item CN[C@H](CC(C)C)C(=O)N[C@H]1C(=O)N[C@@H](CC(N)=O)C(=O)N[C@H]2C(=O)N[C@H]3C(=O)N[C@H](C(=O)N[C@H](C(=O)O)c4cc(O)cc(O)c4-c4cc3ccc4O)[C@H](O)c3ccc(c(Cl)c3)Oc3cc2cc(c3O[C@@H]2O[C@H](CO)[C@@H](O)[C@H](O)[C@H]2O[C@H]2C[C@](C)(N)[C@H](O)[C@H](C)O2)Oc2ccc(cc2Cl)[C@H]1O
RESULT: 128

QUERY: And what about the molecule COc1cc(/C=C2\CC/C(=C\c3ccc(OCCCN4CCCCCC4)c(OC)c3)C2=O)ccc1OCCCN1CCCCCC1.Cl.Cl ?
RESULT: 32

QUERY: And what about the molecule CCOc1cc(/C=C2\CC/C(=C\c3ccc(OCCCN4CCCC(C)C4)c(OCC)c3)C2=O)ccc1OCCCN1CCCC(C)C1.Cl.Cl (stereo unspecified) ?
RESULT: 32

QUERY: And what about the molecule Cl.Cl.O=C1/C(=C/c2ccc(OCCCCN3CCCCCC3)cc2)CC/C1=C\c1ccc(OCCCCN2CCCCCC2)cc1 ?
RESULT: 32

QUERY: And what about the molecule COc1cc(/C=C2\CC/C(=C\c3ccc(OCCCCN4CCCCCC4)c(OC)c3)C2=O)ccc1OCCCCN1CCCCCC1.Cl.Cl ?
RESULT: 32
